Kindly state pIC50 for each of the entries shown.
Biological target: CCR2 (Homo sapiens, UniProt P41597)
Sequence (P41597 1-360 isoform P41597-2): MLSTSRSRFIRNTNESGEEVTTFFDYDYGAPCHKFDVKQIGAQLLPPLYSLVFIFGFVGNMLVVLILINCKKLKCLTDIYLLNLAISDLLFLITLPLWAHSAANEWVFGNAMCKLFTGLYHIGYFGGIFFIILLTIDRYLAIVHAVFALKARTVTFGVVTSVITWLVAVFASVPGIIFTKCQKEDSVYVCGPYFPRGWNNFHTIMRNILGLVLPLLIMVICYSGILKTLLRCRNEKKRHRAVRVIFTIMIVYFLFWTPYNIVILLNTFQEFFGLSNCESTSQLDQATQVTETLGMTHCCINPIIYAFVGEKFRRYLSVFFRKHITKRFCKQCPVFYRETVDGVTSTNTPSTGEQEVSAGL
Schema: pIC50 number; meaning minus log10 of the concentration expressed in molar units.

Q: What does the record list as pIC50 for COc1ccc(NC(=O)N2CCC(C(C(=O)O)N3CCC(c4c[nH]c5ccccc45)CC3)CC2)cc1OC (centres unmarked) [Cpd 66] ?
A: 4.75

Q: What does the record list as pIC50 for CCNC(=O)NCC(C1CCN(C(=O)/C=C/c2ccc(Cl)c(Cl)c2)CC1)N1CCC(c2c[nH]c3ccccc23)CC1 (centres unmarked) [Cpd 230] ?
A: 5.68

Q: What does the record list as pIC50 for COc1ccc2c(C3CCN(C(CO)C4CCN(C(=O)/C=C/c5cc(F)cc(F)c5)CC4)CC3)c[nH]c2c1 (centres unmarked) [Cpd 165] ?
A: 7.10

Q: What does the record list as pIC50 for Cc1ccc(NC(=O)N2CCC(C(C(=O)O)N3CCC(c4c[nH]c5ccccc45)CC3)CC2)cc1Cl (centres unmarked) [Cpd 49] ?
A: 7.60

Q: What does the record list as pIC50 for Nc1cc2c(C3CCN(C(C(=O)O)C4CCN(C(=O)/C=C/c5cc(F)c(F)c(F)c5)CC4)CC3)c[nH]c2cn1 (centres unmarked) [Cpd 179] ?
A: 6.64

Q: What does the record list as pIC50 for COC(=O)NCC(C1CCN(C(=O)/C=C/c2cc(F)cc(F)c2)CC1)N1CCC(c2c[nH]c3ccccc23)CC1 (centres unmarked) [Cpd 239] ?
A: 5.52

Q: What does the record list as pIC50 for O=CNCC(C1CCN(C(=O)/C=C/c2ccsc2)CC1)N1CCC(c2c[nH]c3ccccc23)CC1 (centres unmarked) [Cpd 225] ?
A: 5.89

Q: What does the record list as pIC50 for CC(=O)OCC(C1CCN(C(=O)Nc2ccc(Cl)c(Cl)c2)CC1)N1CCC(c2c[nH]c3ccccc23)CC1 (centres unmarked) [Cpd 242] ?
A: 6.64
